Target: S. aureus DnaE (DNA polymerase III α-subunit homolog from Staphylococcus aureus) (Staphylococcus aureus)
Construct: SaDnaE (S. aureus DnaE residues 1-1065); 6xHis (N); made in house; host or cells: E. coli BL21-AI
Sequence (Q5HF71 whole entry, the tested form may be a part): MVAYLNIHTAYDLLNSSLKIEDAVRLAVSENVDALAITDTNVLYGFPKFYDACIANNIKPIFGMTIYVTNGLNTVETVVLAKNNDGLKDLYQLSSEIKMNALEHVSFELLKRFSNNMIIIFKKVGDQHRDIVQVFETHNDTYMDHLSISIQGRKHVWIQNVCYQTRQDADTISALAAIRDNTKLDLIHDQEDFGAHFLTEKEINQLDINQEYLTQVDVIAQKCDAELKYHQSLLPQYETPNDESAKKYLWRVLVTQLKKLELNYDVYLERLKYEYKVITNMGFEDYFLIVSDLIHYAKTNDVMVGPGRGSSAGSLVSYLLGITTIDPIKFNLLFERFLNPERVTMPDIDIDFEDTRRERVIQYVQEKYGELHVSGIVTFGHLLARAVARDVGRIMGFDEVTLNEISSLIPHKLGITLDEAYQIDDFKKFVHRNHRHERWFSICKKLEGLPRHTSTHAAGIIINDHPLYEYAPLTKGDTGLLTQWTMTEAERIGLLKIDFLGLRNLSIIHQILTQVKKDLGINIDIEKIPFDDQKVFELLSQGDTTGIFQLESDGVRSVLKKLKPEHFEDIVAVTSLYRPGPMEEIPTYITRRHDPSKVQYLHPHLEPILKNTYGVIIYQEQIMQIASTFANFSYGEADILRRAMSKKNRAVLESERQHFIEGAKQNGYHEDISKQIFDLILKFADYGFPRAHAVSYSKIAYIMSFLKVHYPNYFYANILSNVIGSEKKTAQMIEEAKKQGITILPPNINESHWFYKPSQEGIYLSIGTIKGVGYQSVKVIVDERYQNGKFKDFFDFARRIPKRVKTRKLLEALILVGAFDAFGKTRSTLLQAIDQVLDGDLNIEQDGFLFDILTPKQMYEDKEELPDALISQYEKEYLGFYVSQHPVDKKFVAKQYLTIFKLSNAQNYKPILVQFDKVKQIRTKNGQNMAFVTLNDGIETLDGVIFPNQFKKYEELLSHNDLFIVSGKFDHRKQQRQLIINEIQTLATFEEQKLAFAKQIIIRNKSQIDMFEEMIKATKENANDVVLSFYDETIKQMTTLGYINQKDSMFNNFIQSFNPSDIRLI
Test: biochemical
Type: biochemical
Conditions: S. aureus DnaE IC50
Mark 1 (yes) only for IC50 values smaller than 200 nM; exact matches and larger values are 0 (no).

compound | cat
CO[C@H]1CC2C=C[C@H]3[C@H]4O[C@]2(/C(C)=C/[C@@H](C)[C@@H]([C@@H](C)O)OC1=O)[C@@H]3[C@H](OC(=O)NS(=O)(=O)c1ccccc1)[C@@H](C)[C@H]4OC(=O)c1ccc[nH]1 (some centres unmarked) [Example 40] | 0 (no)

stdin: Please let me know if CO[C@H]1C[C@H]2C[C@H](O)[C@H]3[C@H]4O[C@]2(/C(C)=C/[C@@H](C)[C@@H]([C@@H](C)O)OC1=O)[C@@H]3[C@H](O)[C@@H](C)[C@H]4OC(=O)c1ccc[nH]1 [Example 192] shows IC50 below 200 nM.
stdout: 0 (no)

stdin: Please let me know if CO[C@H]1C[C@H]2C=C[C@H]3[C@H]4O[C@]2(/C(C)=C/[C@@H](C)[C@@H]([C@@H](C)O)OC1=O)[C@@H]3[C@H](O)[C@@H](C)[C@H]4OC(=O)c1cc(Br)c[nH]1 [Example 46] shows IC50 below 200 nM.
stdout: 1 (yes)

stdin: Please let me know if CO[C@H]1CC2C=C[C@H]3[C@H]4O[C@]2(/C(C)=C/[C@@H](C)[C@@H]([C@@H](C)OC(=O)OCCCO)OC1=O)[C@@H]3[C@H](O)[C@@H](C)[C@H]4OC(=O)c1ccc[nH]1 (some centres unmarked) [Example 26] shows IC50 below 200 nM.
stdout: 1 (yes)

stdin: Please let me know if CO[C@H]1C[C@H]2C=CC3C4[C@H](O)[C@@H](C)[C@@H](OC(=O)c5ccc[nH]5)[C@@H]3O[C@]42/C(C)=C/[C@@H](C)[C@@H]([C@@H](C)OS(=O)(=O)O)OC1=O [Example 198] shows IC50 below 200 nM.
stdout: 1 (yes)

stdin: Please let me know if CO[C@H]1C[C@H]2C=C[C@H]3[C@H]4O[C@]2(/C(C)=C/[C@@H](C)[C@H](C)OC1=O)[C@@H]3[C@H](O)[C@@H](C)[C@H]4OC(=O)c1ccc[nH]1 [Example 48] shows IC50 below 200 nM.
stdout: 1 (yes)

stdin: Please let me know if C=C1C[C@@H]2C[C@H](OC)C(=O)O[C@H]([C@@H](C)O)[C@H](C)/C=C(\C)[C@]23O[C@H]2[C@H](OC(=O)c4ccc[nH]4)[C@H](C)[C@@H](O)[C@@H]3[C@@H]12 [Example 200] shows IC50 below 200 nM.
stdout: 1 (yes)

stdin: Please let me know if CO[C@H]1C[C@H]2C=C[C@H]3[C@H]4O[C@]2(/C(C)=C/[C@@H](C)[C@@H]([C@@H](C)OC(=O)NCc2ccc(O)c(O)c2)OC1=O)[C@@H]3[C@H](O)[C@@H](C)[C@H]4OC(=O)c1ccc[nH]1 [Example 17] shows IC50 below 200 nM.
stdout: 1 (yes)

stdin: Please let me know if CO[C@H]1C[C@H]2C=C[C@H]3[C@H]4O[C@]2(/C(C)=C/[C@@H](C)[C@H](c2ccccc2)OC1=O)[C@@H]3[C@H](O)[C@@H](C)[C@H]4OC(=O)c1ccc[nH]1 [Example 52] shows IC50 below 200 nM.
stdout: 0 (no)

stdin: Please let me know if CO[C@H]1C[C@H]2C=CC3C4[C@H](O)[C@@H](C)[C@@H](OC(=O)c5ccc[nH]5)[C@@H]3O[C@]42/C(C)=C/[C@@H](C)[C@@H]([C@@H](C)OC(=O)C(=O)OCc2ccccc2)OC1=O [Example 211] shows IC50 below 200 nM.
stdout: 1 (yes)

stdin: Please let me know if C=CC[C@@H]1C(C)[C@@H](O)[C@@H]2[C@H]3C=C[C@@H]4C[C@H](OC)C(=O)O[C@H]([C@@H](C)O)[C@H](C)/C=C(\C)[C@@]24O[C@H]31 (some centres unmarked) [Example 179] shows IC50 below 200 nM.
stdout: 0 (no)

stdin: Please let me know if CO[C@H]1C[C@H]2C=C[C@H]3[C@H]4O[C@]2(/C(C)=C/[C@@H](C)[C@@H]([C@@H](C)O)OC1=O)[C@@H]3[C@H](O)[C@@H](C)[C@H]4OC(=O)c1cccn1C(C)=O [Example 203] shows IC50 below 200 nM.
stdout: 1 (yes)

stdin: Please let me know if CO[C@H]1C[C@H]2C=C[C@H]3[C@H]4O[C@]2(/C(C)=C/[C@@H](C)[C@@H]([C@@H](C)OC(=O)CBr)OC1=O)[C@@H]3[C@H](O)[C@@H](C)[C@H]4OC(=O)c1ccc[nH]1 [Example 56] shows IC50 below 200 nM.
stdout: 1 (yes)

stdin: Please let me know if CO[C@H]1C[C@H]2C=C[C@H]3[C@H]4O[C@]2(/C(C)=C/[C@@H](C)[C@@H]([C@@H](C)OC(=O)NCc2ccccc2)OC1=O)[C@@H]3[C@H](O)[C@@H](C)[C@H]4OC(=O)c1ccc[nH]1 [Example 10] shows IC50 below 200 nM.
stdout: 1 (yes)

stdin: Please let me know if CO[C@H]1C[C@H]2C=CC3C4[C@H](O)[C@@H](C)[C@@H](OC(=O)c5ccc[nH]5)[C@@H]3O[C@]42/C(C)=C/[C@@H](C)[C@@H]([C@@H](C)OC(=O)C(=O)OCc2cncn2C)OC1=O.O=C(O)C(F)(F)F [Example 207] shows IC50 below 200 nM.
stdout: 1 (yes)

stdin: Please let me know if CO[C@H]1C[C@H]2C=C[C@H]3[C@H]4O[C@]2(/C(C)=C/[C@@H](C)[C@@H]([C@@H](C)O)OC1=O)[C@@H]3[C@H](O)C(C)[C@H]4C#N (some centres unmarked) [Example 188] shows IC50 below 200 nM.
stdout: 0 (no)

stdin: Please let me know if CCCCCCCCNC(=O)O[C@H](C)[C@H]1OC(=O)[C@@H](OC)C[C@H]2C=C[C@H]3[C@H]4O[C@]2(/C(C)=C/[C@H]1C)[C@@H]3[C@H](O)[C@@H](C)[C@H]4OC(=O)c1ccc[nH]1 [Example 14] shows IC50 below 200 nM.
stdout: 1 (yes)
